Items are presented alongside their recorded Ki.
# measuredOn: Neuronal acetylcholine receptor; alpha4/beta2 (Rattus norvegicus, UniProt P09483+P12390)
# Sequence (P09483 whole entry): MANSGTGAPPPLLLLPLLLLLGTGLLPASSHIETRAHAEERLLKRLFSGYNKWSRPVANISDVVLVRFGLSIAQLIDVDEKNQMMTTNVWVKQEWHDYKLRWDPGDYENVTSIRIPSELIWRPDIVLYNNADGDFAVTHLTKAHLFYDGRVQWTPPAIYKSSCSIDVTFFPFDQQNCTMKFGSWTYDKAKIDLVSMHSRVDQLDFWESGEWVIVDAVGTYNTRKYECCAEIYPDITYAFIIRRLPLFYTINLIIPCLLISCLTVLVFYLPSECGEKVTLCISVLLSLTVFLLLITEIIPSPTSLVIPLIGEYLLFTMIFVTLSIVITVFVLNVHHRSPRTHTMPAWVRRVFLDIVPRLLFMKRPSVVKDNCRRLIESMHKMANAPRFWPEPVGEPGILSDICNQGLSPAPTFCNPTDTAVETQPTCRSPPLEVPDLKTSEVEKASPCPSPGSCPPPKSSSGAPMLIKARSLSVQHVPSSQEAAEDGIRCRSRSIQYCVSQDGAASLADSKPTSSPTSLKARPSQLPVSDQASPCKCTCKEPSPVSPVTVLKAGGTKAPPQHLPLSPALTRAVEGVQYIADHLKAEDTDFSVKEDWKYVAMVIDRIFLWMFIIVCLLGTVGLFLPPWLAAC
# Sequence (P12390 whole entry): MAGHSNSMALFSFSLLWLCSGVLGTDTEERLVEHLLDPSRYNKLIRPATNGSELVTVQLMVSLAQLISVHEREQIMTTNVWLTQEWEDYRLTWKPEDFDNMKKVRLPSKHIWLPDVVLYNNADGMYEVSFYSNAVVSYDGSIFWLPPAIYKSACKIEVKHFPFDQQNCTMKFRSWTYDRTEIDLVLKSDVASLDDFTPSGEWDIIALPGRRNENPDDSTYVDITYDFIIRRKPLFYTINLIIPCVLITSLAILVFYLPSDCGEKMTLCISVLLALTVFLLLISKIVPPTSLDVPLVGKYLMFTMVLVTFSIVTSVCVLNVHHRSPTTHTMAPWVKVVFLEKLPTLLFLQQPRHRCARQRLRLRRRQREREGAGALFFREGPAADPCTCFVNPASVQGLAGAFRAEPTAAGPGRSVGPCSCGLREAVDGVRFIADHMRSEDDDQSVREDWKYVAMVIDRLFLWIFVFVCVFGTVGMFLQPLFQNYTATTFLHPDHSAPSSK
# protocolDescription: In vitro binding affinity towards (alpha-4)2(beta-2)3 neuronal nicotinic acetylcholine receptor in P2 membrane fractions of rat forebrain
Reply numerically in nM, unit not repeated.

Form: molecule = CC(=O)C1=CCC2CCC1N2C (configuration not stated) ; Ki = 120

Form: molecule = O=c1cccc2n1C[C@@H]1CNC[C@H]2C1 ; Ki = 0.123

Form: molecule = CN1C2C=C(c3ccc(Cl)nc3)CC1CC2 (configuration not stated) ; Ki = 1.55

Form: molecule = Clc1ncc(C2=CCC3CCC2N3)cn1 (configuration not stated) ; Ki = 2

Form: molecule = C1=C(c2cnccn2)CC2CCC1N2 (configuration not stated) ; Ki = 30.9

Form: molecule = O=c1c(Br)ccc2n1CC1CNCC2C1 (configuration not stated) ; Ki = 0.01

Form: molecule = O=c1ccc(I)c2n1CC1CNCC2C1 (configuration not stated) ; Ki = 0.229

---

# measuredOn: Neuronal acetylcholine receptor; alpha4/beta2 (Rattus norvegicus, UniProt P09483+P12390)
# protocolDescription: In vitro binding affinity towards (alpha-4)2(beta-2)3 neuronal nicotinic acetylcholine receptor in P2 membrane fractions of rat forebrain
readoutKind: Ki (nM)
Reply numerically in nM, unit not repeated.

Here are 5 molecules together with their reported answers.
molecule	unitName	Ki
C1=C(c2ccnnc2)C2CCC(CC1)N2 (stereo unspecified)	nM	19.1
COC(=O)C1=C(c2cccnc2)CC2CCC1N2C (stereo unspecified)	nM	4900
Clc1ncc(C2=CC3CCC(C2)N3)cn1 (stereo unspecified)	nM	0.708
CN(C)C(=O)C1=CCC2CCC1N2C (stereo unspecified)	nM	2000
O=c1c(Br)cc(Br)c2n1CC1CNCC2C1 (stereo unspecified)	nM	10.7

Form: molecule = CN1C2C=C(c3cncnc3)CC1CC2 (stereo in doubt; 33) ; Ki = 43.7

Form: molecule = C1=C(c2cncnc2)C2CCC(CC1)N2 (stereo unspecified) ; Ki = 0.141

Form: molecule = C1=C(c2cnccn2)C2CCC(CC1)N2 (stereo unspecified) ; Ki = 12

Form: molecule = S=c1cccc2n1CC1CNCC2C1 (stereo unspecified) ; Ki = 0.832

Form: molecule = Clc1nccnc1C1=CC2CCC(C1)N2 (stereo unspecified) ; Ki = 209

Form: molecule = O=c1ccc(Br)c2n1CC1CNCC2C1 (stereo unspecified) ; Ki = 0.309

Form: molecule = O=c1c(I)cc(I)c2n1CC1CNCC2C1 (stereo unspecified) ; Ki = 0.525

Form: molecule = C1=C(c2cncnc2)CC2CCC1N2 (stereo unspecified) ; Ki = 0.661

Form: molecule = CN1C2CCC1C(c1ccc(Br)nc1)C2 (stereo unspecified) ; Ki = 0.0363

Form: molecule = CN1C2CC=C(c3cncnc3)C1CC2 (stereo unspecified) ; Ki = 12.6

Form: molecule = c1cncc(C2CC3CCC2N3)c1 (stereo unspecified) [DESCHLOROEPIBATIDINE] ; Ki = 0.0257

Form: molecule = CN(C)C(=O)C1=CCC2CCC1N2 (stereo unspecified) ; Ki = 61700

---

# measuredOn: Neuronal acetylcholine receptor; alpha4/beta2 (Rattus norvegicus, UniProt P09483+P12390)
# protocolDescription: In vitro binding affinity towards (alpha-4)2(beta-2)3 neuronal nicotinic acetylcholine receptor in P2 membrane fractions of rat forebrain
readoutKind: Ki (nM)
Reply numerically in nM, unit not repeated.

Here are 5 compounds together with their reported answers.
compound	Ki [nM]
CN1C2CCC1CN(c1cnccn1)CC2 (centres undefined)	263
C1=C(c2cccnc2)C2CCC(C1)N2 (centres undefined)	1.58
COC(=O)C1=C(c2ccc(Cl)nc2)CC2CCC1N2C (centres undefined)	1660
C1=C(c2cccnc2)C2CCC(CC1)N2 (centres undefined)	0.0513
COC(=O)C1=C(c2cncnc2)CC2CCC1N2C (centres undefined)	214

Form: compound = Clc1ccc(C2=CN3CCC2CC3)cn1 ; Ki = 2.29

Form: compound = C1=C(c2cncnc2)C2CCN1CC2 ; Ki = 12.3

Form: compound = O=c1ccc(Cl)c2n1CC1CNCC2C1 (centres undefined) ; Ki = 2.51

These measurements were taken from ChEMBL document CHEMBL1144890.
